The origin of these recorded values is patent US6784201B2.

molecular target: human IBAT (Homo sapiens); construct: expressed in transfected cells; host or cells: Baby hamster kidney (BHK) cells, clone H14; test: In vitro assay of IBAT-mediated uptake of [14C]-taurocholate (TC) in H14 cells; format: cell-based; conditions: read-out: Human TC IC50
Sequence (Q12908 whole entry): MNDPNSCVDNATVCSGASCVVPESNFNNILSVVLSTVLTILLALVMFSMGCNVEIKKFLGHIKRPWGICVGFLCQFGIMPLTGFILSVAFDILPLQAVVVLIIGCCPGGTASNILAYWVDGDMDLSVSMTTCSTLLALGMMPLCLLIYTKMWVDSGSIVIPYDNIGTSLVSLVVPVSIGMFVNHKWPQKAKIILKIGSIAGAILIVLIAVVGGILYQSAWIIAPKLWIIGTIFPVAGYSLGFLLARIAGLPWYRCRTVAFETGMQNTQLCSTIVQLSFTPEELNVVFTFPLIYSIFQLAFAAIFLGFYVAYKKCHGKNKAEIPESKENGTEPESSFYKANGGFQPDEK
test_readout: IC50 (µM)

Some molecules with known IC50 results, for comparison:
CCCCC1(CC)CS(=O)(=O)c2cc(OC(C)=O)ccc2C(c2ccccc2)C1O (stereo not shown)    3
CCCC[C@@]1(CC)CS(=O)(=O)c2ccc(N)cc2[C@@H](c2ccc(O)cc2)[C@H]1O    2.5
CCCCC1(CCCC)CS(=O)(=O)c2ccc(N(C)C)cc2C(c2ccc(C(=O)OC)cc2)C1O (stereo not shown)    0.041
CCCCC1(CCCC)CS(=O)(=O)c2ccc(N(C)C)cc2C(c2ccc(OC)c(Cl)c2)C1O (stereo not shown)    0.012
CCCCC1(CCCC)CS(=O)(=O)c2ccc(N(C)C)cc2C(c2ccc(OC)cc2)C1O (stereo not shown) [Example 1208]    0.042
C=COCC[N+](CC)(CC)CCOCCOCCOc1cccc(C2c3cc(NC)ccc3S(=O)(=O)CC(CCCC)(CCCC)C2O)c1 (stereo not shown)    0.004
CCCCC1(CC)CS(=O)(=O)c2ccc(OC)cc2C(c2cccc(O)c2)C1O (stereo not shown)    0.073
CCCCC1(CCCC)CS(=O)(=O)c2ccc(N(C)C)cc2C(c2ccc(OCCOCCOCC[N+](C)(C)CC[N+](C)(C)C)cc2)C1O (stereo not shown)    0.007
CCCCC1(CCCC)CS(=O)(=O)c2ccc(N(C)C)cc2C(c2cccc(C[n+]3ccccc3)c2)C1O (stereo not shown)    0.0075
CCCCC1(CC)CS(=O)(=O)c2ccc(N(C)C)cc2C(c2cccc(C)c2)C1O (single isomer, unassigned) [Example 1116]    0.0093

a = CCCCC1(CC)CS(=O)(=O)c2cc(O)ccc2C(c2ccccc2)C1O (stereo not shown)
b = CCCCC[N+](CCCCC)(CCCCC)CCOCCOCCOc1cccc(C2c3cc(N(C)C)ccc3S(=O)(=O)CC(CCCC)(CCCC)C2O)c1 (stereo not shown)
c = CCCCC1(CCCC)CS(=O)(=O)c2c(cccc2N2CCOCC2)C(c2ccc(OC)cc2)C1O (single isomer, unassigned) [Example 1212]
d = CCCCC1(CCCC)CS(=O)(=O)c2ccc(N(C)C)cc2C(c2cccc(OCCOCCOCC[n+]3ccc4c(c3)CCCCC4)c2)C1O (stereo not shown)
Arrange by IC50, high to low. Provide the ranking by listing each label in its place in the requested order.
a, c, b, d

A = CCCCC1(CC)CS(=O)(=O)c2ccc(C)cc2C(c2ccc(F)cc2)C1O (single isomer, unassigned) [Example 283]
B = CCCCC1(CCCC)CS(=O)(=O)c2ccc(N(C)C)cc2C(c2cccc(OCCOCCOCC[N+](CC)(CC)CC#N)c2)C1O (stereo not shown)
Hey, between A and B which has a smaller measured IC50? Bench note: the answer is the label of the chosen record.
B
